Source of measurements: patent US20140287989A1

molecular target: T1, E. coli β clamp (β subunit of DNA polymerase III, dnaN gene product) (E. coli, UniProt P0A988 1-366); test: SPR competition; ΔG = -RT ln Ki
T1 construct: Homodimeric ring; N-tagged protein expressed in BL21 E. coli and purified on Ni-NTA and MonoQ; also called β ring; β protein; not shown: N-terminal tag from the pET15b plasmid
T1 sequence (P0A988 whole entry): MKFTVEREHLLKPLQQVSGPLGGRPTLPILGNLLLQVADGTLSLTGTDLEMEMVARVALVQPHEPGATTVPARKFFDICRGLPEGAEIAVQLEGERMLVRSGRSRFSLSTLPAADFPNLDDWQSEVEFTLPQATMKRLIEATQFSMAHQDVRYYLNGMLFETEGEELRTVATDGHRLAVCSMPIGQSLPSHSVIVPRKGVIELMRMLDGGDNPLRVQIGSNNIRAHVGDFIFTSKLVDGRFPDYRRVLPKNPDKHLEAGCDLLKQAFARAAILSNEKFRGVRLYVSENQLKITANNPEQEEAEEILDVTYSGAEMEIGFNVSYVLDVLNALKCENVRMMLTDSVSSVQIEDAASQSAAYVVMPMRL
Square brackets hold non-standard residues; d marks the D form. Phe(3,4-Cl2) = N[C@@H](Cc1ccc(Cl)c(Cl)c1)C(=O)O; Phe(4-Br) = N[C@@H](Cc1ccc(Br)cc1)C(=O)O; Phe(4-Cl) = N[C@@H](Cc1ccc(Cl)cc1)C(=O)O; hCha = N[C@@H](CCC1CCCCC1)C(=O)O; Cha = N[C@@H](CC1CCCCC1)C(=O)O
Quantity: ΔG (kcal/mol)
Answers are plain numbers, in kcal/mol.

The cases that follow already have their ΔG on record.
Ac-Q[Cha]DLF-OH (SMILES CC(=O)N[C@@H](CCC(N)=O)C(=O)N[C@@H](CC1CCCCC1)C(=O)N[C@@H](CC(=O)O)C(=O)N[C@@H](CC(C)C)C(=O)N[C@@H](Cc1ccccc1)C(=O)O, X stands for the non-natural residue; also called Ac Q ChaDLF; AcQChaDLF) [P7, Ac-Gln-Cha-Asp-Leu-Phe-OH]; -9.42
Ac-Q[Cha]DL[Phe(4-Cl)]-OH (SMILES CC(=O)N[C@@H](CCC(N)=O)C(=O)N[C@@H](CC1CCCCC1)C(=O)N[C@@H](CC(=O)O)C(=O)N[C@@H](CC(C)C)C(=O)N[C@@H](Cc1ccc(Cl)cc1)C(=O)O, X stands for Cha; the substituted phenylalanine is written F; also called Ac-Q Cha DL pClF) [P12, Ac-Gln-Cha-Asp-Leu-pClPhe-OH]; -9.73
Ac-Q[hCha]DLF-OH (SMILES CC(=O)N[C@@H](CCC(N)=O)C(=O)N[C@@H](CCC1CCCCC1)C(=O)N[C@@H](CC(=O)O)C(=O)N[C@@H](CC(C)C)C(=O)N[C@@H](Cc1ccccc1)C(=O)O, X stands for the non-natural residue; also called Ac Q hCha DLF) [P8, Ac-Gln-hCha-Asp-Leu-Phe-OH]; -5.74
Ac-Q[Cha]DL[Phe(3,4-Cl2)]-OH (SMILES CC(=O)N[C@@H](CCC(N)=O)C(=O)N[C@@H](CC1CCCCC1)C(=O)N[C@@H](CC(=O)O)C(=O)N[C@@H](CC(C)C)C(=O)N[C@@H](Cc1ccc(Cl)c(Cl)c1)C(=O)O, X stands for Cha; the substituted phenylalanine is written F; also called Ac-Q Cha DL diClF; Bu29) [P14, Ac-Gln-Cha-Asp-Leu-(3,4-di-Cl)Phe-OH]; -9.85
E. coli DNA polymerase IV (enzyme, also called PolIV; Pol IV) MRKIIHVDMDCFFAAVEMRDNPALRDIPIAIGGSRERRGVISTANYPARKFGVRSAMPTGMALKLCPHLTLLPGRFDAYKEASNHIREIFSRYTSRIEPLSLDEAYLDVTDSVHCHGSATLIAQEIRQTIFNELQLTASAGVAPVKFLAKIASDMNKPNGQFVITPAEVPAFLQTLPLAKIPGVGKVSAAKLEAMGLRTCGDVQKCDLVMLLKRFGKFGRILWERSQGIDERDVNSERLRKSVGVERTMAEDIHHWSECEAIIERLYPELERRLAKVKPDLLIARQGVKLKFDDFQQTTQEHVWPRLNKADLIATARKTWDERRGGRGVRLVGLHVTLLDPQMERQLVLGL; -9.09
Ac-Q[Cha]DL[Phe(4-Br)]-OH (SMILES CC(=O)N[C@@H](CCC(N)=O)C(=O)N[C@@H](CC1CCCCC1)C(=O)N[C@@H](CC(=O)O)C(=O)N[C@@H](CC(C)C)C(=O)N[C@@H](Cc1ccc(Br)cc1)C(=O)O, X stands for Cha; the substituted phenylalanine is written F; also called Ac-Q Cha DL pBrF) [P13, Ac-Gln-Cha-Asp-Leu-pBrPhe-OH]; -9.71

Turning now to a further record.
For H-QLDLF-OH (also called QLDLF) [P5, H-Gln-Leu-Asp-Leu-Phe-OH] the binder record lists ΔG as -6.87
